Items are presented alongside their recorded Emax.
Biological target: F508delCFTR (Homo sapiens, UniProt P13569, DEL508-508)
Construct: expressed in transfected cells; host or cells: CFBE41o- human lung-derived epithelial cells (CFBE4lo-F508delCFTR-HRP), doxycycline-inducible
Sequence (P13569 with tags, fused parts or gaps DEL508-508): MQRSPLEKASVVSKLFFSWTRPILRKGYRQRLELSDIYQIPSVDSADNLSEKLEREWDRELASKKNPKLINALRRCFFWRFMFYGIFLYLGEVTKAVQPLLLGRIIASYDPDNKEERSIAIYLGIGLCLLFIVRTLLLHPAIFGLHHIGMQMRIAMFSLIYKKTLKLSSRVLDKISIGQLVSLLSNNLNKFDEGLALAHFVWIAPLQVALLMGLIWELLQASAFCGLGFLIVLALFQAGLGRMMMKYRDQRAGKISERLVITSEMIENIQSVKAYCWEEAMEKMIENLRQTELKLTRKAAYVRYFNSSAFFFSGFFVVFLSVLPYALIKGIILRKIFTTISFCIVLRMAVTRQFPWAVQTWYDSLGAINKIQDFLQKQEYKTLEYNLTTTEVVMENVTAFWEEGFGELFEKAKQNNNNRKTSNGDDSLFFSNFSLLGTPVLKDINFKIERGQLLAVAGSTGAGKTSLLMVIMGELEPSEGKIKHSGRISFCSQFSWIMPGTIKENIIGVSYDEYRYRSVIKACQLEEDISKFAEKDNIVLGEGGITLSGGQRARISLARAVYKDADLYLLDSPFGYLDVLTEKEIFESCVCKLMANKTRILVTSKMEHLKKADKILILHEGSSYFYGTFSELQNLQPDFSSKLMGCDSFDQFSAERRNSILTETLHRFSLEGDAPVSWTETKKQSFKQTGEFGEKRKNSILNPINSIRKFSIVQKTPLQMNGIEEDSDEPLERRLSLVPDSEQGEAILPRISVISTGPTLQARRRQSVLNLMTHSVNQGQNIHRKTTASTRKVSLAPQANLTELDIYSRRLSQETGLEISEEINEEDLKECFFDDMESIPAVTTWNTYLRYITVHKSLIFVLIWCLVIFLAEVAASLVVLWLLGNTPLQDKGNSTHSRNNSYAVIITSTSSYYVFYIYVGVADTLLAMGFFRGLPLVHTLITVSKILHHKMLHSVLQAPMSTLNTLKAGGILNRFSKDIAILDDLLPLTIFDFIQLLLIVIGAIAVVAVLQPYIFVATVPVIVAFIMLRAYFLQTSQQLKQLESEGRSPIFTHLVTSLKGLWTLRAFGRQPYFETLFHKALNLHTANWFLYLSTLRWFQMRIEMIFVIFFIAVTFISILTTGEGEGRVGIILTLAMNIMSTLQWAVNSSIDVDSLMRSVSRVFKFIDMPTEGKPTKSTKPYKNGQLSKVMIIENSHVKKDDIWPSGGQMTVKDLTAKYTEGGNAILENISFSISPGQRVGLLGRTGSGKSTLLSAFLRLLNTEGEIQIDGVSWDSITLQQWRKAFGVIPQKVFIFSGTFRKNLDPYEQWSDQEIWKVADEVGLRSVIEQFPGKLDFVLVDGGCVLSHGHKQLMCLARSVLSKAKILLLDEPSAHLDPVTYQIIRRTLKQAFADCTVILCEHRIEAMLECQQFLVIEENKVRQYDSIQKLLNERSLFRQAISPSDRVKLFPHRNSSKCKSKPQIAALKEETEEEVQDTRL
Test: Cell Surface Expression-Horse Radish Peroxidase (CSE-HRP) Assay
Assay type: cell-based
Details: test compound without co-corrector; maximum at any tested concentration, normalized to on-plate positive control; read-out: Maximum % activity (without co-corrector)
Protocol: Cell Surface Expression-Horse Radish Peroxidase (CSE-HRP) Assay The development was achieved by expressing the F508delCFTR mutation along with a horseradish peroxidase (HRP) in the fourth exofacial loop, and then measuring the HRP activity using luminescence readout from these cells, CFBE4lo-F508delCFTR-HRP, that were incubated overnight with the test corrector compounds, either without or with the co-corrector. […] The raw counts from the experiment were analyzed using Accelrys® Assay Explorer v3.3. […]

Below: 5 molecules and their reported Emax.
molecule	reported.metric	assay.value
Cc1cc(C(F)(F)F)cc(N[C@@H]2[C@@H](C(C)(C)C)[C@H](C(=O)NS(=O)(=O)C3(C)CC3)N(C(=O)C3CCCCC3)[C@@H]2c2ccccc2)n1 (racemic)	Emax	< 100%
COc1ccc(C(C)(C)C)cc1CN[C@H]1[C@H](C(C)(C)C)[C@@H](C(=O)O)N(C(=O)C2CCc3ccccc3C2)[C@H]1c1ccccc1 (stereo partly drawn)	Emax	> 200%
COc1ccc(CN[C@H]2[C@H](C(C)(C)C)[C@@H](C(=O)O)N(C(=O)C3CCCCC3)[C@H]2c2ccccc2)cc1Cl	Emax	< 100%
C/C=C/CC(C/C=C/C)C(=O)N1[C@H](C(=O)O)[C@@H](C(C)(C)C)[C@H](NCc2cc(C(C)(C)C)ccc2OC)[C@@H]1c1ccccc1	Emax	> 200%
COc1ccc(C(C)(C)C)cc1CN[C@H]1[C@H](C(C)(C)C)[C@@H](C(=O)O)N(C(=O)C2CCc3cc(F)ccc3O2)[C@H]1c1ccccc1 (stereo partly drawn)	Emax	> 200%

Reported Emax ( COc1ccc(C(F)(F)F)cc1CN[C@H]1[C@H](C(C)(C)C)[C@@H](C(=O)O)N(C(=O)[C@H]2CCCC(F)(F)C2)[C@H]1c1ccccc1 ) = < 100%

Reported Emax ( CCC(CC)C(=O)N1[C@H](C(=O)O)[C@@H](C(C)(C)C)[C@H](NCc2cc(C(C)(C)C)ccc2OC)[C@@H]1c1ccccc1 ) = > 200%

###

target: F508delCFTR (Homo sapiens, UniProt P13569, DEL508-508); construct: expressed in transfected cells; host or cells: CFBE41o- human lung-derived epithelial cells (CFBE4lo-F508delCFTR-HRP), doxycycline-inducible; experiment: Cell Surface Expression-Horse Radish Peroxidase (CSE-HRP) Assay; assay type: cell-based; conditions: with co-corrector (2 μM of 3-[(2R,4R)-4-({[1-(2,2-difluoro-1,3-benzodioxol-5-yl)cyclopropyl]carbonyl}amino)-7-methoxy-3,4-dihydro-2H-chromen-2-yl]benzoic acid); read-out: EC50 (with co-corrector)
reported.metric: EC50

Reported EC50 ( COc1nc(C(C)(C)C)ccc1CN[C@H]1[C@H](C(C)(C)C)[C@@H](C(=O)O)N(C(=O)OC(C)C)[C@H]1c1ccccc1C(C)C [Example I-216] ) = < 1 µM

Reported EC50 ( COc1ncc(C(F)(F)F)cc1CN[C@H]1[C@H](C(C)(C)C)[C@@H](C(=O)O)N(C(=O)OC(C)C)[C@H]1c1cccnc1OC(C)C [Example 79] ) = 1 to 10 µM

Reported EC50 ( COc1ccc(C(C)(C)C)cc1CN[C@H]1[C@H](C(C)(C)C)[C@@H](C(=O)O)N(C(=O)C2CCC2)[C@H]1c1cccnc1N1CCC1 [Example 102] ) = 1 to 10 µM

Reported EC50 ( COc1ccc(C(C)(C)C)cc1CN[C@H]1[C@H](C(C)(C)C)[C@@H](C(=O)O)N(C(=O)C2COc3ccccc3O2)[C@H]1c1cccnc1N(C)C (single isomer, unassigned) [II-471] ) = < 1 µM

Reported EC50 ( COc1ccc(CN(C)C)cc1CN[C@H]1[C@H](C(C)(C)C)[C@@H](C(=O)O)N(C(=O)C2CCCCC2)[C@H]1c1ccccc1 [Example I-85] ) = > 10 µM

Reported EC50 ( CCCCOC(=O)N1[C@H](C(=O)O)[C@@H](C(C)(C)C)[C@H](NCc2cc(C(C)(C)C)ccc2OC)[C@@H]1c1ccccc1 [II-383] ) = < 1 µM

###

Items are presented alongside their recorded EC50.
biological target: F508delCFTR (Homo sapiens, UniProt P13569, DEL508-508); construct: expressed in transfected cells; host or cells: CFBE41o- human lung-derived epithelial cells (CFBE4lo-F508delCFTR-HRP), doxycycline-inducible; assay: Cell Surface Expression-Horse Radish Peroxidase (CSE-HRP) Assay; type: cell-based; conditions: CSE-HRP; test compound without co-corrector; read-out: EC50 (without co-corrector)

Below: 5 molecules and their reported EC50.
molecule	EC50
COc1ccc(C(C)(C)C)cc1CN[C@H]1[C@H](C(C)(C)C)[C@@H](C(=O)O)N(C(=O)c2onc3ccccc23)[C@H]1c1ccccc1	< 1000 nM
COc1ccc(C(F)(F)F)cc1CN[C@H]1[C@H](C(C)(C)C)[C@@H](C(=O)O)N(C(=O)C2COc3ccccc3O2)[C@H]1c1ccccc1 (stereo partly drawn)	1000 to 10000 nM
COc1ccc(C(F)(F)F)cc1CN[C@H]1[C@H](C(C)(C)C)[C@@H](C(=O)O)N(C(=O)[C@H](OC)c2ccccc2)[C@H]1c1ccccc1N(C)C	1000 to 10000 nM
COc1ccc(C(F)(F)F)cc1CN[C@H]1[C@H](C(C)(C)C)[C@@H](C(=O)O)N(C(=O)[C@@H]2CCCCO2)[C@H]1c1cccc2c1OCC2	1000 to 10000 nM
CC(C)(C)[C@H]1[C@H](Nc2cc(C#N)cnc2Cl)[C@H](c2ccccc2)N(C(=O)C2CCCCC2)[C@@H]1C(=O)O	1000 to 10000 nM

With those in mind, consider the next molecule.
Reported EC50 ( Cc1cc(C(F)(F)F)cc(N[C@H]2[C@H](C(C)(C)C)[C@@H](C(=O)O)N(C(=O)C3CCCCC3)[C@H]2c2ccccn2)n1 (racemic) ) = 1000 to 10000 nM

###

molecular target: F508delCFTR (Homo sapiens, UniProt P13569, DEL508-508); construct: expressed in transfected cells; host or cells: CFBE41o- human lung-derived epithelial cells (CFBE4lo-F508delCFTR-HRP), doxycycline-inducible; test: Cell Surface Expression-Horse Radish Peroxidase (CSE-HRP) Assay; format: cell-based; details: without co-corrector; maximum at any tested concentration, normalized to on-plate positive control; read-out: Maximum % activity (without co-corrector);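 as to Maximum % activity (without co-corrector): percent of the 2 µM on-plate positive control corrector response above DMSO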
reported.metric: Emax

compound	Emax
COc1ccc(C(C)(C)C)cc1CN[C@H]1[C@H](C23CC(C2)C3)[C@@H](C(=O)O)N(C(=O)OC(C)C)[C@H]1c1cccnc1OC [Example 76]	100 to 200%
COc1ccc(C(C)(C)C)cc1CN[C@H]1[C@H](C(C)(C)C)[C@@H](C(=O)O)N(C(=O)[C@H]2CCCCO2)[C@H]1c1ccccc1F [Example 50]	100 to 200%
COc1ccc(C(C)(C)C)cc1CN[C@H]1[C@H](C(C)(C)C)[C@@H](C(=O)O)N(C(=O)C2CC3CC3C2)[C@H]1c1ccccc1 (stereo partly drawn) [Example I-186]	100 to 200%
COc1ccc(C(C)(C)C)cc1CN[C@H]1[C@H](C(C)(C)C)[C@@H](C(=O)O)N(C(=O)OC2COC2)[C@H]1c1ccccc1 [Example I-244]	100 to 200%
COc1ccc(C(F)(F)F)cc1CN[C@H]1[C@H](C(C)(C)C)[C@@H](C(=O)O)N(C(=O)[C@H]2CCC[C@H](OC)C2)[C@H]1c1ccccc1 [Example I-60]	> 200%

With those in mind, consider the next compound.
Reported Emax ( COc1ccc(-c2cncnc2)cc1CN[C@H]1[C@H](C(C)(C)C)[C@@H](C(=O)O)N(C(=O)C2CCCCC2)[C@H]1c1ccccc1 [Example I-114] ) = < 100%

###

biological target: F508delCFTR (Homo sapiens, UniProt P13569, DEL508-508); construct: expressed in transfected cells; host or cells: CFBE41o- human lung-derived epithelial cells (CFBE4lo-F508delCFTR-HRP), doxycycline-inducible; assay: Cell Surface Expression-Horse Radish Peroxidase (CSE-HRP) Assay; assay type: cell-based; conditions: test compound without co-corrector; maximum at any tested concentration, normalized to on-plate positive control; read-out: Maximum % activity (without co-corrector);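 as to Maximum % activity (without co-corrector): percent of the 2 µM on-plate positive control corrector response above DMSO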
reported.metric: Emax

Below: 4 compounds and their reported Emax.
compound	reported.metric	assay.value
COc1ncc(C(F)(F)F)cc1CN[C@H]1[C@H](C23CC(C2)C3)[C@@H](C(=O)O)N(C(=O)OC(C)C)[C@H]1c1ccccc1F [II-544]	Emax	100 to 200%
CC(C)(C)[C@@H]1[C@@H](NCc2ccccc2OC(F)F)[C@@H](c2ccccc2)N(C(=O)C2CCCCC2)[C@H]1C(=O)O (racemic) [III-7]	Emax	< 100%
CCN(C)S(=O)(=O)NC(=O)[C@H]1[C@H](C(C)(C)C)[C@@H](Nc2cc(C(F)(F)F)cc(C)n2)[C@@H](c2ccccc2)N1C(=O)C1CCCCC1 (racemic) [III-55]	Emax	< 100%
COc1ccc(C(C)(C)C)cc1CN[C@H]1[C@H](C(C)(C)C)[C@@H](C(=O)O)N(C(=O)C2C3C2[C@H]2CC[C@@H]3C2)[C@H]1c1ccccc1 (stereo partly drawn) [III-192]	Emax	> 200%

Reported Emax ( COc1ccc(C(C)c2ccccc2)cc1CN[C@H]1[C@H](C(C)(C)C)[C@@H](C(=O)O)N(C(=O)C2CCCCC2)[C@H]1c1ccccc1 (stereo partly drawn) [III-171] ) = > 200%

Reported Emax ( COc1nc2ccccc2cc1CN[C@H]1[C@H](C(C)(C)C)[C@@H](C(=O)O)N(C(=O)OC(C)C)[C@H]1c1ccccc1C [II-579] ) = > 200%

Reported Emax ( COc1cc(-c2ccccc2)ccc1CN[C@@H]1[C@@H](C(C)(C)C)[C@H](C(=O)O)N(C(=O)OC(C)C)[C@@H]1c1ccccc1 (racemic) [III-92] ) = < 100%

Reported Emax ( COc1ccc(C(C)(C)C)cc1CN[C@H]1[C@H](C(C)(C)C)[C@@H](C(=O)O)N(C(=O)[C@@H](C)c2ccccc2)[C@H]1c1cccnc1OC [II-539] ) = < 100%

Reported Emax ( COc1ccc(C(C)(C)C)cc1CN[C@H]1[C@H](C(C)(C)C)[C@@H](C(=O)O)N(C(=O)[C@@H](C)c2ccccc2)[C@H]1c1ccccc1 [II-326] ) = > 200%

Reported Emax ( CO[C@@H](C(=O)N1[C@H](c2ccccc2)[C@H](Nc2cc(C(F)(F)F)cc(C)n2)[C@@H](C(C)(C)C)[C@@H]1C(=O)O)c1ccccc1 [III-75] ) = < 100%

Reported Emax ( COc1ccc(C(C)(C)C)cc1CN[C@H]1[C@H](C(C)(C)C)[C@@H](C(=O)O)N(C(=O)C2(C)CCc3ccccc32)[C@H]1c1ccccc1 (stereo partly drawn) [II-368] ) = 100 to 200%

Reported Emax ( Cc1cc(C(F)(F)F)cc(N[C@H]2[C@H](C(C)(C)C)[C@@H](C(=O)O)N(C(=O)C3CCCC(F)(F)C3)[C@H]2c2cccnc2N(C)C)n1 (stereo partly drawn) [II-503] ) = < 100%

Reported Emax ( COc1ccc(C(F)(F)F)nc1CN[C@H]1[C@H](C(C)(C)C)[C@@H](C(=O)O)N(C(=O)C2CCCCC2)[C@H]1c1ccccc1 [II-408] ) = 100 to 200%

Reported Emax ( COc1ncc(C(F)(F)F)cc1N[C@H]1[C@H](C(C)(C)C)[C@@H](C(=O)O)N(C(=O)[C@@H]2CCCC[C@H]2C(F)(F)F)[C@H]1c1cccnc1N(C)C [II-485] ) = < 100%
